Tested on: 616215-338-R-J1-PDC spheroids with HUVEC/MSC, viability;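 also: spheroids exposed to agents for seven days before the viability read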
Test: Anticancer human tumor 616215-338-R-J1-PDC patient-derived colon adenocarcinoma cell line growth inhibition [PI3K]
Settings: second compound 1 µM; first compound 0.1 µM; hits give low values
Text: Combinatorial screen of targeted agents with the PI3K inhibitors inavolisib, alpelisib, duvelisib, and copanlisib in multi-cell type tumor spheroids A high-throughput screen of multi-cell type tumor spheroids was designed to identify active combinations of targeted small molecules and PI3K pathway inhibitors. […] Compounds. […] If the clinical Cmax for an agent had not been determined, the highest concentration tested was 10 microM. […]
Assay Metric: viability, T/C (%)
A number alone suffices; assume %.

Compound	System Under Test	viability, T/C, %
CC(Cn1ccc(-c2ccc(C#N)c(Cl)c2)n1)NC(=O)c1cc(C(C)O)[nH]n1 (stereo unspecified) + CC(Nc1ncnc2nc[nH]c12)c1cc2cccc(Cl)c2c(=O)n1-c1ccccc1	616215-338-R-J1-PDC spheroids with HUVEC/MSC, viability	88.3
CC(=O)c1c(C)c2cnc(Nc3ccc(N4CCNCC4)cn3)nc2n(C2CCCC2)c1=O + COc1c(OCCCN2CCOCC2)ccc2c3n(c(=NC(=O)c4cnc(N)nc4)nc12)CCN3	616215-338-R-J1-PDC spheroids with HUVEC/MSC, viability	18.4
CC1(C)CCC(Nc2ncc(C(F)(F)F)c(-c3c[nH]c4c(P(C)(C)=O)c(C#N)ccc34)n2)CN1 (stereo unspecified) + CC(Nc1ncnc2nc[nH]c12)c1cc2cccc(Cl)c2c(=O)n1-c1ccccc1	616215-338-R-J1-PDC spheroids with HUVEC/MSC, viability	41.1

Measured viability, T/C (616215-338-R-J1-PDC spheroids with HUVEC/MSC, viability), entry C[C@@H](NC(=O)c1ncnc(N)c1Cl)c1ncc(C(=O)Nc2cc(C(F)(F)F)c(Cl)cn2)s1 + COc1c(OCCCN2CCOCC2)ccc2c3n(c(=NC(=O)c4cnc(N)nc4)nc12)CCN3 : 19.7

Measured viability, T/C (616215-338-R-J1-PDC spheroids with HUVEC/MSC, viability), entry CC(Cn1ccc(-c2ccc(C#N)c(Cl)c2)n1)NC(=O)c1cc(C(C)O)[nH]n1 (stereo unspecified) + Cc1nc(NC(=O)N2CCCC2C(N)=O)sc1-c1ccnc(C(C)(C)C(F)(F)F)c1 : 102
